Test system: HEK293
Test: Selectivity index, ratio of Ki for human CB1 receptor expressed in HEK293 cell membranes to Ki for human CB2 receptor expressed in HEK293 cell membranes
Format: cell-based
Give measured Ratio Ki for each item. Keep answers brief.

Sure, the documented Ratio Ki for CCOC(=O)c1c(NC(=O)c2ccc3ccccc3c2)sc2c1CCCC2 is > 5.6

Sure, the documented Ratio Ki for CCOC(=O)c1c(NS(=O)(=O)c2ccccc2)sc2c1CCCC2 is > 5.02

Sure, the documented Ratio Ki for Cc1cc(C(=O)NC2CCCCC2)c(C)n1-c1ccccc1 is > 59.6

Sure, the documented Ratio Ki for CCOC(=O)c1c(NC(=O)C23CC4CC(CC(C4)C2)C3)sc2c1CCCC2 is 469 to 500

Sure, the documented Ratio Ki for CCc1c(C(=O)NC23CC4CC(CC(C4)C2)C3)cc(C)n1-c1ccccc1 is 195 to 200

====

Give measured Ki for each item. Keep answers brief.
Molecular target: Cannabinoid receptor 2 (Homo sapiens)
Sequence (P34972 whole entry): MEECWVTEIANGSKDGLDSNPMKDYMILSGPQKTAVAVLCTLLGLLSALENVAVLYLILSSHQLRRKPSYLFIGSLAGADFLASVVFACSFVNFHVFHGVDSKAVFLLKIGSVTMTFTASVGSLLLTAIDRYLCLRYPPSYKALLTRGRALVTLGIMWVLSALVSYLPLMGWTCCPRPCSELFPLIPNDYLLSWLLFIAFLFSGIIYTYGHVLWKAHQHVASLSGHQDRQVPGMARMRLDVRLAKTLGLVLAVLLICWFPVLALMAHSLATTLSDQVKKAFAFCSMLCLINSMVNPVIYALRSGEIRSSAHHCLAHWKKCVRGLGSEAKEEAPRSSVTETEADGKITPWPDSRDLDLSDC
Assay: Displacement of [3H]-CP-55940 from human CB2 receptor expressed in HEK293 cell membranes after 90 mins by radioligand binding assay
Field format: number, assumed µM, no unit text.

Sure, the documented Ki for CCOC(=O)c1c(NC(=O)c2cccc3ccccc23)sc2c1CCCC2 is 0.0168

Sure, the documented Ki for CCOC(=O)c1c(NC(=O)CCc2ccccc2)sc2c1CCCC2 is 0.112

Sure, the documented Ki for CCOC(=O)c1cc(-c2ccccc2)sc1NC(=O)c1cccc2ccccc12 is 0.0598

Sure, the documented Ki for Cc1cc(C(=O)NCCc2ccccc2)c(C)n1-c1ccccc1 is 0.584

Sure, the documented Ki for CCOC(=O)c1c(NC(=O)c2ccc3ccccc3c2)sc2c1CCCC2 is 1.79
